Measured kon values are reported for all entries that follow.
TARGET UNDER TEST: T1, 383 amino acid recombinant tau (UniProt P10636-6 1-383, biotinylated where printed as biotin-rTau383 (position not given))
T1 construct: also called rTau383
T1 sequence (P10636 other isoform, or with tags, fused parts or gaps limits assumed): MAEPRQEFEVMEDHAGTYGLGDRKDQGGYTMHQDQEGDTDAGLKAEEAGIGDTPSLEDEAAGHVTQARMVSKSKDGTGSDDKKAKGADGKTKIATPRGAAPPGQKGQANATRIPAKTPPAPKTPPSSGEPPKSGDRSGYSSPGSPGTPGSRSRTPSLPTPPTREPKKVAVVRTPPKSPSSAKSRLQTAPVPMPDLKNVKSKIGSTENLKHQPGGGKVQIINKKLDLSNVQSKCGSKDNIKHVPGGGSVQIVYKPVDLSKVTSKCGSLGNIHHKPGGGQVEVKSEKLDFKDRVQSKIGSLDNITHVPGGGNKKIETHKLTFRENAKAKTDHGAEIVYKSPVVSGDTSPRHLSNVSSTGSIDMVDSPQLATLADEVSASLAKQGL
EXPERIMENTAL PROTOCOL: Octet
Dear colleague, please return just the value in M⁻¹ s⁻¹, with no unit written.

Example cases with answers are listed next.
VH3/Vk1 (antibody, V domains shown, member of the group m7; also called humanized IPN002 variant VH3/Vk1) VH: EVQLVESGGALVKPGGSLRLSCAASGFSFSKYGMSWVRQAPGKGLEWVATISSSGSRTYYPDSVKGRFTISRDNAKNTLYLQMNSLRAEDTAMYYCSISWDGAMDYWGQGTTVTVSS VL: DVLMTQSPLSLPVTLGQPASISCKSSQSIVHSNGNTYLEWYLQKPGQSPQLLVYKVSNRFSGVPDRFSGSGSGTDFTLKISRVEAEDVGTYYCFQGSLVPWAFGGGTKVEIK ... 129000
humanized IPN002 variant VH2/Vk2 (antibody, V domains shown) VH: EVHLVESGGALVKPGGSLRLSCAASGFSFSKYGMSWVRQAPGKGLEWVATISSSGSRTYYPDSVKGRFTISRDNAKNTLYLQMNSLRAEDTAMYYCSISWDGAMDYWGQGTTVTVSS VL: DVVMTQSPLSLPVTLGQPASISCKSSQSIVHSNGNTYLEWYLQKPGQSPQLLVYKVSNRFSGVPDRFSGSGSGTDFTLKISRVEAEDVGTYYCFQGSLVPWAFGGGTKVEIK ... 205000
VH3/Vk2 (antibody, V domains shown, member of the group m7; also called humanized IPN002 variant VH3/Vk2) VH: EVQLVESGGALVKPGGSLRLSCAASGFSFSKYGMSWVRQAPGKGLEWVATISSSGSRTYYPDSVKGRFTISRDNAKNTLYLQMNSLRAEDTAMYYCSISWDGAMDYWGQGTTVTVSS VL: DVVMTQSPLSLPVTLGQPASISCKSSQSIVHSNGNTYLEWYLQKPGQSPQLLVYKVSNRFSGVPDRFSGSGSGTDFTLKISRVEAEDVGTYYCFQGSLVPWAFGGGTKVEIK ... 185000
IPN002 (antibody, V domains shown, It is the murine parental antibody; also called IPN2; IPN-2) VH: EVHLVESGGALVKPGGSLKLSCAASGFSFSKYGMSWVRQTPDKRLEWVATISSSGSRTYYPDSVKGQFTISRDNAKNTLYLQMSSLKSEDTAMYYCSISWDGAMDYWGQGTSVTVSS VL: DVLMTQTPLSLPVSLGDQASISCKSSQSIVHSNGNTYLEWYLQKPGQSPKLLVYKVSNRFSGVPDRFSGSGSGTDFTLKISRVEAEDLGTYYCFQGSLVPWAFGGGTKLEIK ... 233000
VH1/Vk3 (antibody, V domains shown, member of the group m7; also called humanized IPN002 variant VH1/Vk3) VH: EVHLVESGGALVKPGGSLRLSCAASGFSFSKYGMSWVRQAPGKGLEWVATISSSGSRTYYPDSVKGRFTISRDNAKNTLYLQMSSLKSEDTAMYYCSISWDGAMDYWGQGTSVTVSS VL: DVVMTQSPLSLPVTLGQPASISCKSSQSIVHSNGNTYLEWYLQKPGQSPQLLVYKVSNRFSGVPDRFSGSGSGTDFTLKISRVEAEDVGVYYCFQGSLVPWAFGGGTKVEIK ... 182000
VH3/Vk3 (antibody, V domains shown, member of the group m7; also called humanized IPN002 variant VH3/Vk3) VH: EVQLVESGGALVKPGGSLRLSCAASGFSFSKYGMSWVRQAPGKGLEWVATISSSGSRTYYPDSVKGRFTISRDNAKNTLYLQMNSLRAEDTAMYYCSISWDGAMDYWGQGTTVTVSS VL: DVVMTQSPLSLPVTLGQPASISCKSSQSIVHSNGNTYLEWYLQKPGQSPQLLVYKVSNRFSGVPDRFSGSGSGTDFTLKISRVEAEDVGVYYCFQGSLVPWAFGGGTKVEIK ... 187000

stdin: I am curious: what kon value has been reported for VH4/Vk3 (antibody, V domains shown, member of the group m7; also called humanized IPN002 variant VH4/Vk3) VH: EVQLVESGGALVKPGGSLRLSCAASGFSFSKYGMSWVRQAPGKGLEWVATISSSGSRTYYPDSVKGRFTISRDNAKNTLYLQMNSLRAEDTAMYYCAISWDGAMDYWGQGTTVTVSS VL: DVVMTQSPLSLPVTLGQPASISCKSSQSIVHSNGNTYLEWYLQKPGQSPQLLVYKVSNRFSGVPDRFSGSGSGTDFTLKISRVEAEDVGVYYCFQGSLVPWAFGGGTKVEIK ?
stdout: 164000

stdin: State the recorded kon for this entry: VH1/Vk2 (antibody, V domains shown, member of the group m7; also called humanized IPN002 variant VH1/Vk2) VH: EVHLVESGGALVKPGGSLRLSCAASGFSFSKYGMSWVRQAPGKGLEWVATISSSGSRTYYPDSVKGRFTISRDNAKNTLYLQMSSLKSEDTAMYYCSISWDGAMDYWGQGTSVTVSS VL: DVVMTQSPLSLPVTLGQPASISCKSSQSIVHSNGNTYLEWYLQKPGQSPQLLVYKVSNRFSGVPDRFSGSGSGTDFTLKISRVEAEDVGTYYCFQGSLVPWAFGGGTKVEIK
stdout: 196000

stdin: Fill in the blank: the reported kon of VH1/Vk1 (antibody, V domains shown, member of the group m7; also called humanized IPN002 variant VH1/Vk1) VH: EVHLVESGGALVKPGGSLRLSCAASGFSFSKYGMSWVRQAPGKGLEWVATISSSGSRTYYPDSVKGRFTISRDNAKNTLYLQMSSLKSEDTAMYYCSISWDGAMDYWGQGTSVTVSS VL: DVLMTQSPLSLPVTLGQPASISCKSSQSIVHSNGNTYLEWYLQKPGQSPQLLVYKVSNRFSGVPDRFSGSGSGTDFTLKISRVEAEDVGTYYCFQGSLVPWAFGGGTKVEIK is ____.
stdout: 206000

stdin: kon for VH2/Vk4 (antibody, V domains shown, member of the group m7; also called humanized IPN002 variant VH2/Vk4) VH: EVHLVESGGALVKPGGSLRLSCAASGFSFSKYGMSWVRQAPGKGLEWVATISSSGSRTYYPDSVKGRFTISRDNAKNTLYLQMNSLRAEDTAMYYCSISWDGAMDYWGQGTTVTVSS VL: DVVMTQSPLSLPVTLGQPASISCKSSQSIVHSNGNTYLEWYLQKPGQSPQLLIYKVSNRFSGVPDRFSGSGSGTDFTLKISRVEAEDVGVYYCFQGSLVPWAFGGGTKVEIK ?
stdout: 142000
